Recorded values, source patent US5252571A.

Target: aldose reductase (Sus scrofa)
Construct: porcine crystalline lens stored at -80° C. was homogenized in distilled water; from tissue; host or cells: porcine crystalline lens
Experiment: Aldose reductase inhibitory activity (porcine crystalline lens enzyme)
Format: biochemical
Conditions: d1-glyceraldehyde 3 mM, pH 6.2, 25° C., 2 minutes
Description: Aldose reductase enzyme standard was prepared from porcine crystalline lens by the method of Hayman et al. (cf., S. Hayman et al., Journal of Biological Chemistry, 240, 877-882, 1965). […] The activity of aldose reductase was determined by the method of Hayman et al. supra. […] Thereafter, the mixture was reacted at 25° C. for 2 minutes and change in absorbance at 340 nm was determined using COBAS FARA II (Roche Co.).
Recorded metric: IC50 (nM)

>  <Compound>
O=C(O)CC1Sc2ccccc2N(Cc2nc3c(F)c(F)ccc3s2)C1=O (stereo not drawn) [Example 189]

>  <Assay target>
aldose reductase (Sus scrofa)

>  <Val>
9.9

$$$$
>  <Compound>
O=C(O)CC1Sc2cc(OC(F)(F)F)ccc2N(Cc2nc3cc(F)cc(F)c3s2)C1=O (stereo not drawn) [Example 187]

>  <Assay target>
aldose reductase (Sus scrofa)

>  <Val>
9.8

$$$$
>  <Compound>
O=C(O)CC1Sc2ccccc2N(Cc2nc3ccc(Cl)c(Cl)c3s2)C1=O (stereo not drawn) [Example 160]

>  <Assay target>
aldose reductase (Sus scrofa)

>  <Val>
14

$$$$
>  <Compound>
O=C(O)CC1Sc2cc(F)ccc2N(Cc2nc3cc(F)cc(F)c3s2)C1=O (stereo not drawn) [Example 182]

>  <Assay target>
aldose reductase (Sus scrofa)

>  <Val>
12

$$$$
>  <Compound>
O=C(O)CC1Sc2ccccc2N(Cc2nc3cc(F)ccc3s2)C1=O (stereo not drawn) [Example 131]

>  <Assay target>
aldose reductase (Sus scrofa)

>  <Val>
15

$$$$
>  <Compound>
Cc1ccc2c(c1)N(Cc1nc3cc(Cl)ccc3s1)C(=O)C(CC(=O)O)S2 (stereo not drawn) [Example 139]

>  <Assay target>
aldose reductase (Sus scrofa)

>  <Val>
14

$$$$
>  <Compound>
CC(C)c1cccc2c1OC(C(C)C)C(=S)N2CC(=O)O (stereo not drawn) [Compound A, reference compound]

>  <Assay target>
aldose reductase (Sus scrofa)

>  <Val>
21

$$$$
>  <Compound>
Cc1ccc2c(c1)N(Cc1nc3c(F)cccc3s1)C(=O)C(CC(=O)O)S2 (stereo not drawn) [Example 176]

>  <Assay target>
aldose reductase (Sus scrofa)

>  <Val>
14

$$$$
>  <Compound>
O=C(O)CC1Sc2ccccc2N(Cc2nc3ccc(F)c(F)c3s2)C1=O (stereo not drawn) [Example 155]

>  <Assay target>
aldose reductase (Sus scrofa)

>  <Val>
14

$$$$
